Assay: Toxicity against Vero cells (MTT)
Assay type: cell-based, African green monkey
Details: African green monkey; MTT, 48 h
Method: It should be emphasized that toxicity is a major concern of drug discovery and development. The above active compounds were evaluated for in vitro toxicity against a mammalian kidney cell line (Vero). The selectivity index (SI) was used as the evaluation parameter of drug potential of the test samples by comparing the toxicity on the Vero cell line (CC50) and the selective inhibitory effect on P. falciparum, L. donovani or T. cruzi (IC50) calculated here as CC50/IC50. […]
The following compounds are listed with their measured CC50 at 48 h values.
Entry rule: numbers only, all in µM.

Known results for compounds:
>>> observed_measurement("COc1cc(O)c2c(c1)/C=C/C[C@H](O)[C@H](O)C(=O)CCC[C@H](C)OC2=O")
131
>>> observed_measurement("COc1cc(O)c2c(c1Cl)/C=C/C[C@H](O)[C@@H]1OC(C)(C)O[C@H]1CCC[C@H](C)OC2=O")
102
>>> observed_measurement("COc1cc(O)c2c(c1)/C=C/C[C@H](O)[C@H](O)[C@@H](O)/C=C/C[C@H](C)OC2=O")
227

Entry `COc1cc(O)c2c(c1)/C=C/C[C@H](O)[C@H](O)[C@@H](O)CCC[C@H](C)OC2=O` : reported CC50 at 48 h = ?
274

----------
Assay: Cytotoxicity SRB assay, HUVEC
Details: human
Method: All of the compounds were also evaluated for their cytotoxic properties against six human cancer cell lines (lung carcinoma epithelian (A549), colon carcinoma (HCT-116), pancreatic carcinoma (BXPC-3), breast cancer (MCF-7), cervical epithelium (HeLa), and erythroleukemic (K562)) and a human umbilical vein endothelial cell (HUVEC) line (Table 2). The cytotoxicity against HCT-116, BXPC-3, HeLa, MCF-7, A-549, and HUVEC cell lines was evaluated using the SRB method. […]
The following compounds are listed with their measured IC50 at 72 h values.

Entry COc1cc(O)c2c(c1)C=CCC1OC(C)(C)OC1C(=O)C=CCC(C)OC2=O (centres unmarked) [Compound 26] : reported IC50 at 72 h = ?
4.81 µM

Entry COc1cc(O)c2c(c1)/C=C/C[C@@H]1OC(C)(C)O[C@@H]1C(=O)/C=C/C[C@H](C)OC2=O [Compound 20] : reported IC50 at 72 h = ?
9.78 µM

Entry COc1cc(O)c2c(c1)/C=C/C[C@H]1OC(C)(C)O[C@@H]1C(=O)/C=C/C[C@H](C)OC2=O [Compound 23] : reported IC50 at 72 h = ?
7.51 µM

Entry COc1cc(O)c2c(c1)/C=C/C[C@H](O)[C@H](O)[C@@H](O)/C=C/C[C@H](C)OC2=O [Compound 8, zeaenol] : reported IC50 at 72 h = ?
> 10 µM

Entry COc1cc(O)c2c(c1)/C=C/C[C@H]1OC(C)(C)O[C@H]1C(=O)/C=C/C[C@H](C)OC2=O [Compound 25] : reported IC50 at 72 h = ?
> 10 µM

----------
Test system: Plasmodium falciparum
Assay: Antiplasmodial assay (PicoGreen growth inhibition in infected human erythrocytes)
Type: cell-based
Conditions: Erythrocyte, read-out: IC50 of positive control, antiplasmodial assay
PROPERTY_MEASURED: IC50 (nM)
Entry rule: numbers only, all in nM.

Entry CCN(CC)CCCC(C)Nc1ccnc2cc(Cl)ccc12 (stereo not shown) [chloroquine, reference compound] : reported IC50 = ?
32.9
